# System: MIAPaCa-2 cells
# assay-method-text: Proliferation assay, cells in adhesion
# Type: cell-based
# condition-set: Homo sapiens, MIA PaCa-2, MIAPaCa-2, T11, read-out: IC50
parameter-measured: IC50 (nM)

A. CN(C)C/C=C/C(=O)Nc1ccc(CC(=O)Nc2ccc(-c3cc4c(N5CCOCC5)ncnc4[nH]3)cc2)cc1 [Compound 5]
B. C=CC(=O)NC1CCCN(Cc2ccnc(C(=O)Nc3ccc(-c4cc5c(N6CCOCC6)ncnc5[nH]4)cc3)c2)C1 (centres unmarked) [Compound 10]
Task: Problem: Given the entries A and B , determine which has the lower reported IC50. Which one? Tell me its label.
Result: B
(B: 220 nM, A: 520 nM)
